target: Human Recombinant Matriptase 2 (Homo sapiens, UniProt Q8IU80); construct: purchased Enzo Life Sciences (an in-house preparation was also used) ALX-201-752-1; test: Matriptase 2 fluorescence based inhibition assay, Method A (100 mM TRIS pH 9, 1 mg/mL BSA); format: biochemical; settings: 1 uM; Assay Used A; read-out: Mar-2 % inhibition at 1 uM
Sequence (Q8IU80 whole entry): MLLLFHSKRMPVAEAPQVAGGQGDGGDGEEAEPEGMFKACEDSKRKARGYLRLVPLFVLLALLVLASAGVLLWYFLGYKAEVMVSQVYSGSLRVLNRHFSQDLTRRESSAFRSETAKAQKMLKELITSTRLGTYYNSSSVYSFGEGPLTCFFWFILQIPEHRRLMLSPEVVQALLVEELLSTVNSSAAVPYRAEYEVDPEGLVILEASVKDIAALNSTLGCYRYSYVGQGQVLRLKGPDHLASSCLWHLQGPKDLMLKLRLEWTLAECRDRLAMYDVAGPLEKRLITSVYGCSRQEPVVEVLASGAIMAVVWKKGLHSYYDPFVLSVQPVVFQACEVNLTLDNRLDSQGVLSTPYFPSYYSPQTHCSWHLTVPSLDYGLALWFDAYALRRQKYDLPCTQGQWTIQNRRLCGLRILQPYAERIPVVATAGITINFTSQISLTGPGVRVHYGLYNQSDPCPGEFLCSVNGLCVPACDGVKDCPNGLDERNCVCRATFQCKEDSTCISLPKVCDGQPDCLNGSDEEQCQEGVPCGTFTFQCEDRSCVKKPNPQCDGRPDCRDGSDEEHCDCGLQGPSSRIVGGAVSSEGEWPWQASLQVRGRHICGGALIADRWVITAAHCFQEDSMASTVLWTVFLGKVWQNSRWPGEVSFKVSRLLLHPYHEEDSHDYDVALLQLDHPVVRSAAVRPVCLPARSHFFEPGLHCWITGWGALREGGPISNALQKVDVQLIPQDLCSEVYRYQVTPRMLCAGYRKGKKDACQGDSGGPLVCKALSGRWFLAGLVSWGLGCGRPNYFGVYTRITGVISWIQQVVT
Consider the following molecules and their measured inhibition at 1 µM readings.

Record excerpt, results attached:
| Molecule | inhibition at 1 µM |
| --- | --- |
| N=C(N)c1ccc2cc(C(=O)Nc3cccc(-n4ccccc4=O)c3)n(Cc3ccc(C(N)=O)cc3)c2c1 | 25 to 50% |
| N=C(N)c1ccc2cc(C(=O)N[C@H]3CC[C@H](N)CC3)n(CCc3ccccc3)c2c1 | 50 to 75% |
| N=C(N)c1ccc2cc(C(=O)NCc3cc(F)cc(F)c3)n(Cc3ccc(C(N)=O)cc3)c2c1 | 0 to 25% |

The record that follows has no inhibition at 1 µM shown yet.
Input: Which inhibition at 1 µM is listed for N=C(N)c1ccc2cc(C(=O)NC3CCN(CCCN)CC3)n(Cc3ccc(C(F)(F)F)cc3)c2c1 ?
Output: 25 to 50%

---

target: Human Recombinant Matriptase 2 (Homo sapiens); construct: purchased Enzo Life Sciences (an in-house preparation was also used) ALX-201-752-1; test: Matriptase 2 fluorescence based inhibition assay, Method B (50 mM TRIS pH 7.5, 150 mM NaCl, 0.01% gelatin); format: biochemical; conditions: 1 uM compound; Assay Used = B (Method B); read-out: Mar-2 % inhibition at 1 uM
Consider the following compounds and their measured inhibition at 1 µM readings.

Record excerpt, results attached:
| Molecule | Test target | Measurement |
| --- | --- | --- |
| N=C(N)c1ccc2cc(C(=O)N[C@H]3CC[C@H](NC=O)CC3)n(Cc3cccc4ccccc34)c2c1 | Human Recombinant Matriptase 2 (Homo sapiens) | 50 to 75% |
| COc1ccccc1Oc1cc(Cn2c(C(=O)O)cc3ccc(C(=N)N)cc32)c2ccccc2c1 | Human Recombinant Matriptase 2 (Homo sapiens) | 25 to 50% |
| N=C(N)c1ccc2cc(C(=O)N[C@H]3CC[C@H](N)CC3)n(Cc3csc4ccccc34)c2c1 | Human Recombinant Matriptase 2 (Homo sapiens) | 75 to 100% |
| N=C(N)c1ccc2cc(C(=O)Nc3ccncc3)n(Cc3cccc4ccccc34)c2c1 | Human Recombinant Matriptase 2 (Homo sapiens) | 50 to 75% |

The record that follows has no inhibition at 1 µM shown yet.
Input: Form field: inhibition at 1 µM recorded for Cc1cnc(-c2cc3ccc(C(=N)N)cc3n2Cc2cccc3ccccc23)[nH]1 with Human Recombinant Matriptase 2 (Homo sapiens) (enter value)
Output: 75 to 100%

---

Consider the following molecules and their measured inhibition at 1 µM readings.
target: Human Recombinant Matriptase 2 (Homo sapiens, UniProt Q8IU80); construct: purchased Enzo Life Sciences (an in-house preparation was also used) ALX-201-752-1; test: Matriptase 2 fluorescence based inhibition assay, Method B (50 mM TRIS pH 7.5, 150 mM NaCl, 0.01% gelatin); format: biochemical; details: 1 uM compound; Assay Used = B; read-out: Mar-2 % inhibition at 1 uM

Record excerpt, results attached:
| Molecule | inhibition at 1 µM |
| --- | --- |
| N=C(N)c1ccc2cc(C(=O)N3CCCNCC3)n(Cc3cccc4ccccc34)c2c1 [Compound I-442] | 50 to 75% |
| CC(C)(C)OC(=O)NC(=N)c1ccc2cc(C(=O)NC3CCCN(C(=O)OC(C)(C)C)C3)n(Cc3cccc4ccccc34)c2c1 (stereo not drawn) [Compound I-427] | 0 to 25% |
| Cn1nc(C(F)(F)F)c(C=O)c1Oc1cc(Cn2c(C(=O)O)cc3ccc(C(=N)N)cc32)c2ccccc2c1 [Compound I-584] | 0 to 25% |
| N=C(N)c1ccc2cc(C(=O)O)n(Cc3cccc4ccccc34)c2c1 [Compound I-458] | 75 to 100% |
| N=C(N)c1ccc2c(C(N)=O)c(C(=O)N[C@H]3CC[C@H](N)CC3)n(Cc3cccc4ccccc34)c2c1 [Compound I-513] | 25 to 50% |

Input: Which inhibition at 1 µM is listed for N=C(N)c1ccc2c(C(=O)O)c(C(=O)N[C@H]3CC[C@H](N)CC3)n(Cc3cccc4ccccc34)c2c1 [Compound I-512] ?
Output: 50 to 75%

Input: Another molecule to look at: N=C(N)c1ccc2cc(CO)n(Cc3cccc4ccccc34)c2c1 [Compound I-487]
Output: 50 to 75%

Input: Another molecule to look at: NCc1ccc2cc(C(=O)NCC3CCNCC3)n(-c3ccc4ccccc4c3)c2c1 [Compound I-537]
Output: 0 to 25%

Input: Another molecule to look at: N=C(N)c1ccc2cc(C(=O)NC3CCNC(=O)C3)n(Cc3cccc4ccccc34)c2c1 (stereo not drawn) [Compound I-477]
Output: 50 to 75%

Input: Another molecule to look at: N#Cc1c(C(=O)N[C@H]2CC[C@H](N)CC2)n(Cc2cccc3ccccc23)c2cc(C(=N)N)ccc12 [Compound I-514]
Output: 0 to 25%

Input: Another molecule to look at: N=C(N)c1ccc2cc(C(=O)N3CCC(CN)CC3)n(Cc3cccc4ccccc34)c2c1 [Compound I-429]
Output: 50 to 75%
